Tested on: intracellular L.donovani amastigotes, AG83-R, SSG, in macrophages
Test: microbe, parasite or virus in culture
Format: cell-based
Settings: CC50/IC50, intracellular
Readout: Selectivity index (SI), AG83-R, SSG

The cases that follow already have their Selectivity index (SI), AG83-R, SSG on record.
Compound	Measured Result
CC(C)(C)[C@H]1CC[C@H](CC2=C(O)C(=O)c3ccccc3C2=O)CC1	60 ± 10
NC[C@@H]1O[C@H](O[C@H]2[C@@H](O)[C@H](O[C@@H]3[C@@H](O)[C@H](N)C[C@H](N)[C@H]3O[C@H]3O[C@H](CO)[C@@H](O)[C@H](O)[C@H]3N)O[C@@H]2CO)[C@H](N)[C@@H](O)[C@@H]1O	2 ± 1
C[C@@H]1[C@H](O)[C@@H](C)/C=C/C=C/C=C/C=C/C=C/C=C/C=C/[C@H](O[C@@H]2O[C@H](C)[C@@H](O)[C@H](N)[C@@H]2O)C[C@@H]2O[C@](O)(C[C@@H](O)C[C@@H](O)[C@H](O)CC[C@@H](O)C[C@@H](O)CC(=O)O[C@H]1C)C[C@H](O)[C@H]2C(=O)O	70 ± 10
O.O.O.O.O.O.O.O.O.O=C([O-])[C@@H]1[O][Sb](=[O])([O][Sb]2(=[O])[O][C@H]([C@H](O)CO)[C@H](O)[C@H](C(=O)[O-])[O]2)[O][C@H]([C@H](O)CO)[C@@H]1O.[Na+].[Na+].[Na+] (some centres unmarked) [SSG, sodium stibogluconate]	1 ± 1

Please look at the following compound next.
Selectivity index (SI), AG83-R, SSG reading for CCCCCCCCCCCCCCCCOP(=O)([O-])OCC[N+](C)(C)C : 60 ± 5
